Method: kinase inhibitors against Plasmodium liver-stage infection, cell-based, known kinase inhibitor set, luminescence, hepatoma host viability (AID 624392);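 note: infected cells incubated roughly two days before readout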
Experimental Setup: Plasmodium liver stage in hepatoma cells, luciferase luminescence, concentration not given here; measured here: host liver cell viability
Endpoint Label: liver cell % of control (%)

Chemical Smiles | Endpoint Label | Unit Tag | Recorded Measurement
Clc1ccc(-c2nn3ncccc3c2-c2ccnc(Nc3ccccc3)n2)cc1 | liver cell % of control | % | 149
O=C1NC(=NCc2ccccc2)SC1=Cc1ccc2ncccc2c1 | liver cell % of control | % | 99.5
COc1ccc2c(-c3ccnc(Nc4cccc(OC(F)(F)F)c4)n3)cnn2n1 | liver cell % of control | % | 77.9
Fc1ccc(-c2c(-c3ccncc3)[nH]c3cccnc23)cc1 | liver cell % of control | % | 141
Cc1cc(O)cc(C)c1/C=C/c1cncc(-c2nn[nH]n2)c1 | liver cell % of control | % | 110
O=C1NC(=NCCc2cccs2)SC1=Cc1ccc2ncccc2c1 | liver cell % of control | % | 118

* * *

Reported cytochrome c release ratio values follow for various compounds
Method: inhibitors of mitochondrial cytochrome c release, biochemical, purified mitochondria (AID 1603);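 note: mouse liver mitochondria challenged with calcium chloride; signal normalized to the plate average as 100%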
Experimental Setup: stronger effect = lower value

Compound | cytochrome c release ratio
CC(C)[N+](C)(CCOC(=O)C1c2ccccc2Oc2ccccc21)C(C)C | 0.77
CCc1cc(C(N)=S)ccn1 | 1.06
COc1ccc(OC)c(C(O)CNC(=O)CN)c1 (stereo not drawn) | 1.63
CCN(CC)CCOC(=O)C1(C2CCCCC2)CCCCC1 | 0.58
CCN(CC)CCNC(=O)c1ccc(N)cc1 | 1.74
Clc1cccc(Cl)c1NC1=NCCN1 | 1.31
O=C1c2c(O)ccc(O)c2C(=O)c2c(NCCNCCO)ccc(NCCNCCO)c21 | 3.49
NS(=O)(=O)c1cc2c(cc1Cl)NC=NS2(=O)=O | 0.96
OC(CCN1CCCC1)(c1ccccc1)C1CCCCC1 (stereo not drawn) | 0.63
CS(=O)(=O)OCCCCOS(C)(=O)=O | 0.62
CN[C@@H]1[C@H](O)[C@H](NC)[C@H]2O[C@@]3(O)C(=O)C[C@@H](C)O[C@H]3O[C@@H]2[C@H]1O | 0.85
O=S(=O)(O)CCS | 0.92
CCN(CC)CCCC(C)Nc1c2ccc(Cl)cc2nc2ccc(OC)cc12 (stereo not drawn) | 1.44
Clc1ccc2c(c1)C(N1CCNCC1)=Nc1ccccc1O2 | 0.82
NC(=O)N1c2ccccc2C=Cc2ccccc21 | 1.51
NC(=O)c1cnccn1 | 1.22
CC(=O)CC(c1ccccc1)c1c(O)c2ccccc2oc1=O (stereo not drawn) | 1.4
CN(C)CCOC(c1ccc(Cl)cc1)c1ccccn1 (stereo not drawn) | 0.83

* * *

Reported cytochrome c release ratio values follow for various molecules
Method: inhibitors of mitochondrial cytochrome c release, biochemical, purified mitochondria (AID 1603);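 note: mouse liver mitochondria challenged with calcium chloride; signal normalized to the plate average as 100%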
Experimental Setup: stronger effect = lower value

Molecule | cytochrome c release ratio
CC[C@H](C)C(=O)O[C@H]1C[C@@H](C)C=C2C=C[C@H](C)[C@H](CC[C@@H]3C[C@@H](O)CC(=O)O3)[C@H]21 | 0.75
CCc1cccc2c3c([nH]c12)C(CC)(CC(=O)O)OCC3 (configuration not stated) | 0.88
c1ccc2c(c1)CCCC2C1=NCCN1 (configuration not stated) | 0.63
CC1Cc2ccccc2N1NC(=O)c1ccc(Cl)c(S(N)(=O)=O)c1 (configuration not stated) | 0.89
CCN(CCO)CCCC(C)Nc1ccnc2cc(Cl)ccc12 (configuration not stated) | 0.8
NS(=O)(=O)c1cc2c(cc1C(F)(F)F)NC(Cc1ccccc1)NS2(=O)=O (configuration not stated) | 1.06
Cc1ccc(C)c(OCCCC(C)(C)C(=O)O)c1 | 0.86
CN(C)CCCN1c2ccccc2Sc2ccc(Cl)cc21 | 1.17
Nc1nc(N)c2nc(-c3ccccc3)c(N)nc2n1 | 0.47
c1ccc2c(CC3=NCCN3)cccc2c1 | 1.14
NCCc1ccc(O)c(O)c1 | 0.92
C[C@H](CS)C(=O)N1CCC[C@H]1C(=O)O | 0.82
